- Test system: Staphylococcus aureus
- Experiment description: Antimicrobial activity against methicillin-sensitive Staphylococcus aureus CCARM 0204 incubated for 24 hrs by microtiter broth dilution method
- Assay type: functional
- Condition set: CCARM 0204, 24 h
Would you kindly list MIC for each of these compounds?

So, COc1ccc(C=C2OC(=O)C=C2c2cc(Br)c(O)c(Br)c2)cc1 [RUBROLIDE P] ? Its MIC was > 32 µg/mL

MIC reported for this compound CN[C@H](CC(C)C)C(=O)N[C@H]1C(=O)N[C@@H](CC(N)=O)C(=O)N[C@H]2C(=O)N[C@H]3C(=O)N[C@H](C(=O)N[C@H](C(=O)O)c4cc(O)cc(O)c4-c4cc3ccc4O)[C@H](O)c3ccc(c(Cl)c3)Oc3cc2cc(c3O[C@@H]2O[C@H](CO)[C@@H](O)[C@H](O)[C@H]2O[C@H]2C[C@](C)(N)[C@H](O)[C@H](C)O2)Oc2ccc(cc2Cl)[C@H]1O [VANCOMYCIN] : 0.25 µg/mL

The compound listed as O=C1O/C(=C\c2ccc(O)c(Br)c2)C(c2ccc(O)c(Br)c2)=C1C(=O)c1cc(Br)c(O)c(Br)c1 [CADIOLIDE C] has a reported MIC of 0.25 µg/mL

====

- System: Staphylococcus aureus
- Experiment description: Antimicrobial activity against Staphylococcus aureus ATCC 6538 incubated for 24 hrs by microtiter broth dilution method
- Type: functional
- Condition set: ATCC 6538, 24 h
Observed property: MIC (µg/mL)
Kindly answer with a numeric value in µg/mL, unit omitted.

MIC reading for O=C1C=C(c2cc(Br)c(O)c(Br)c2)/C(=C/c2cc(Br)c(O)c(Br)c2)O1 [RUBROLIDE A] : 3.1

Measured MIC of O=C1O/C(=C\c2ccc(O)c(Br)c2)C(c2cc(Br)c(O)c(Br)c2)=C1C(=O)c1cc(Br)c(O)c(Br)c1 [CADIOLIDE D] : 6.3

Query O=C1O/C(=C\c2cc(Br)c(O)c(Br)c2)C(c2ccc(O)c(Br)c2)=C1C(=O)c1cc(Br)c(O)c(Br)c1 [CADIOLIDE E] yields MIC of 3.1

O=C1C=C(c2ccc(O)c(Br)c2)/C(=C/c2cc(Br)c(O)c(Br)c2)O1 [RUBROLIDE J] has a reported MIC of 3.1

Given item O=C1O/C(=C\c2cc(Br)c(O)c(Br)c2)C(c2cc(Br)c(O)c(Br)c2)=C1C(=O)c1cc(Br)c(O)c(Br)c1 [CADIOLIDE B] , the value recorded as its MIC is 3.1

Query O=C1O/C(=C\c2ccc(O)c(Br)c2)C(c2ccc(O)c(Br)c2)=C1C(=O)c1cc(Br)c(O)c(Br)c1 [CADIOLIDE C] yields MIC of 0.4

====

- Test system: Staphylococcus aureus
- Experiment description: Antimicrobial activity against methicillin-sensitive Staphylococcus aureus CCARM 3640 incubated for 24 hrs by microtiter broth dilution method
- Assay type: functional
- Condition set: CCARM 3640, 24 h
Would you kindly list MIC for each of these compounds?
Please format your answer as a value with the unit trailing.

// MIC value for O=C1C=C(c2ccc(O)c(Br)c2)/C(=C/c2cc(Br)c(O)c(Br)c2)O1 [RUBROLIDE J] : 2 µg/mL

Input CN[C@H](CC(C)C)C(=O)N[C@H]1C(=O)N[C@@H](CC(N)=O)C(=O)N[C@H]2C(=O)N[C@H]3C(=O)N[C@H](C(=O)N[C@H](C(=O)O)c4cc(O)cc(O)c4-c4cc3ccc4O)[C@H](O)c3ccc(c(Cl)c3)Oc3cc2cc(c3O[C@@H]2O[C@H](CO)[C@@H](O)[C@H](O)[C@H]2O[C@H]2C[C@](C)(N)[C@H](O)[C@H](C)O2)Oc2ccc(cc2Cl)[C@H]1O [VANCOMYCIN] . Output MIC: 0.25 µg/mL

Summary for this compound, `CCCCCCCCCC(=O)N[C@@H](Cc1c[nH]c2ccccc12)C(=O)N[C@H](CC(N)=O)C(=O)N[C@@H](CC(=O)O)C(=O)N[C@@H]1C(=O)NCC(=O)N[C@@H](CCCN)C(=O)N[C@@H](CC(=O)O)C(=O)N[C@H](C)C(=O)N[C@@H](CC(=O)O)C(=O)NCC(=O)N[C@H](CO)C(=O)N[C@@H]([C@H](C)CC(=O)O)C(=O)N[C@@H](CC(=O)c2ccccc2N)C(=O)O[C@@H]1C` : MIC is 16 µg/mL

Value of MIC reported for the compound O=C1C=C(c2cc(Br)c(O)c(Br)c2)/C(=C/c2cc(Br)c(O)c(Br)c2)O1 [RUBROLIDE A] is 8 µg/mL

====

- Test system: Staphylococcus aureus
- Experiment description: Antimicrobial activity against methicillin-resistant Staphylococcus aureus CCARM 3635 incubated for 24 hrs by microtiter broth dilution method
- Assay type: functional
- Condition set: CCARM 3635, 24 h
Observed property: MIC (µg/mL)
Form entry: value (µg/mL) — number only.

According to the records, this compound O=C1O/C(=C\c2ccc(O)c(Br)c2)C(c2cc(Br)c(O)c(Br)c2)=C1C(=O)c1cc(Br)c(O)c(Br)c1 [CADIOLIDE D] displays MIC of 0.25

Measured MIC, O=C1O/C(=C\c2cc(Br)c(O)c(Br)c2)C(c2ccc(O)c(Br)c2)=C1C(=O)c1cc(Br)c(O)c(Br)c1 [CADIOLIDE E] : 0.5

Please fill in: MIC reported for O=C1C=C(c2cc(Br)c(O)c(Br)c2)/C(=C/c2cc(Br)c(O)c(Br)c2)O1 [RUBROLIDE A] = 8

====

- Tested on: Bacillus subtilis
- Experiment description: Antimicrobial activity against Bacillus subtilis ATCC 6633 incubated for 24 hrs by microtiter broth dilution method
- Assay type: functional
- Condition set: ATCC 6633, 24 h
For each entry below, report its MIC value.
Your answer should be a plain number; it is taken to be in mg/L.

Memo: O=C1O/C(=C\c2ccc(O)c(Br)c2)C(c2ccc(O)c(Br)c2)=C1C(=O)c1cc(Br)c(O)c(Br)c1 [CADIOLIDE C] , reported MIC: 3.1

# MIC (molecule: O=C1C=C(c2cc(Br)c(O)c(Br)c2)/C(=C/c2cc(Br)c(O)c(Br)c2)O1 [RUBROLIDE A] ) is 1.6

Query COc1ccc(C=C2OC(=O)C=C2c2cc(Br)c(O)c(Br)c2)cc1 [RUBROLIDE P] yields MIC of 50

GET /value?item= O=C1O/C(=C\c2cc(Br)c(O)c(Br)c2)C(c2cc(Br)c(O)c(Br)c2)=C1C(=O)c1cc(Br)c(O)c(Br)c1 [CADIOLIDE B] &field=MIC returns 3.1

Reported MIC of O=C1O/C(=C\c2ccc(O)c(Br)c2)C(c2cc(Br)c(O)c(Br)c2)=C1C(=O)c1cc(Br)c(O)c(Br)c1 [CADIOLIDE D] : 6.3

According to the records, this molecule `COc1ccc(C=C2OC(=O)C=C2c2ccc(O)c(Br)c2)cc1` displays MIC of 50

Briefly, MIC measured for O=C1C=C(c2ccc(O)c(Br)c2)/C(=C/c2cc(Br)c(O)c(Br)c2)O1 [RUBROLIDE J] : 1.6

The value of MIC measured for the molecule O=C1O/C(=C\c2cc(Br)c(O)c(Br)c2)C(c2ccc(O)c(Br)c2)=C1C(=O)c1cc(Br)c(O)c(Br)c1 [CADIOLIDE E] turned out to be 3.1

====

- System: Staphylococcus aureus
- Experiment description: Antimicrobial activity against methicillin-resistant Staphylococcus aureus CCARM 3089 incubated for 24 hrs by microtiter broth dilution method
- Assay type: functional
- Condition set: CCARM 3089, 24 h
Observed property: MIC (µg/mL)
Value expressed in µg/mL; do not type the unit.

MIC for O=C1O/C(=C\c2cc(Br)c(O)c(Br)c2)C(c2ccc(O)c(Br)c2)=C1C(=O)c1cc(Br)c(O)c(Br)c1 [CADIOLIDE E] is 1

Form field MIC, entry O=C1O/C(=C\c2cc(Br)c(O)c(Br)c2)C(c2cc(Br)c(O)c(Br)c2)=C1C(=O)c1cc(Br)c(O)c(Br)c1 [CADIOLIDE B] : 1

Quick note, MIC for O=C1O/C(=C\c2ccc(O)c(Br)c2)C(c2ccc(O)c(Br)c2)=C1C(=O)c1cc(Br)c(O)c(Br)c1 [CADIOLIDE C] landed at 0.5

====

- System: Staphylococcus aureus
- Experiment description: Antimicrobial activity against methicillin-resistant Staphylococcus aureus CCARM 3089 incubated for 24 hrs by microtiter broth dilution method
- Type: functional
- Condition set: CCARM 3089, 24 h
Observed property: MIC

Form: compound = `CCCCCCCCCC(=O)N[C@@H](Cc1c[nH]c2ccccc12)C(=O)N[C@H](CC(N)=O)C(=O)N[C@@H](CC(=O)O)C(=O)N[C@@H]1C(=O)NCC(=O)N[C@@H](CCCN)C(=O)N[C@@H](CC(=O)O)C(=O)N[C@H](C)C(=O)N[C@@H](CC(=O)O)C(=O)NCC(=O)N[C@H](CO)C(=O)N[C@@H]([C@H](C)CC(=O)O)C(=O)N[C@@H](CC(=O)c2ccccc2N)C(=O)O[C@@H]1C` ; MIC = > 32 µg/mL

Looking up O=C1C=C(c2cc(Br)c(O)c(Br)c2)/C(=C/c2cc(Br)c(O)c(Br)c2)O1 [RUBROLIDE A] , I found its MIC recorded as 8 µg/mL

MIC measured on O=C1C=C(c2ccc(O)c(Br)c2)/C(=C/c2cc(Br)c(O)c(Br)c2)O1 [RUBROLIDE J] = 4 µg/mL

Briefly, MIC measured for CC12C[C@@]34C=CC(=O)[C@@](C)(CCC(=O)Nc5c(O)ccc(C(=O)O)c5O)C3[C@H](CC1C4)O2 (stereo not given in full) : 8 µg/mL

Reported MIC for O=C1O/C(=C\c2ccc(O)c(Br)c2)C(c2cc(Br)c(O)c(Br)c2)=C1C(=O)c1cc(Br)c(O)c(Br)c1 [CADIOLIDE D] was 0.5 µg/mL
